target: Protein mono-ADP-ribosyltransferase TIPARP (Homo sapiens, UniProt Q7Z3E1); assay: Inhibition of PARP7 in human NCI-H1373 cells assessed as increase in STAT1 phosphorylation at Tyr701 incubated for 48 hrs by LANCE Ultra sandwich assay
Sequence (Q7Z3E1 whole entry): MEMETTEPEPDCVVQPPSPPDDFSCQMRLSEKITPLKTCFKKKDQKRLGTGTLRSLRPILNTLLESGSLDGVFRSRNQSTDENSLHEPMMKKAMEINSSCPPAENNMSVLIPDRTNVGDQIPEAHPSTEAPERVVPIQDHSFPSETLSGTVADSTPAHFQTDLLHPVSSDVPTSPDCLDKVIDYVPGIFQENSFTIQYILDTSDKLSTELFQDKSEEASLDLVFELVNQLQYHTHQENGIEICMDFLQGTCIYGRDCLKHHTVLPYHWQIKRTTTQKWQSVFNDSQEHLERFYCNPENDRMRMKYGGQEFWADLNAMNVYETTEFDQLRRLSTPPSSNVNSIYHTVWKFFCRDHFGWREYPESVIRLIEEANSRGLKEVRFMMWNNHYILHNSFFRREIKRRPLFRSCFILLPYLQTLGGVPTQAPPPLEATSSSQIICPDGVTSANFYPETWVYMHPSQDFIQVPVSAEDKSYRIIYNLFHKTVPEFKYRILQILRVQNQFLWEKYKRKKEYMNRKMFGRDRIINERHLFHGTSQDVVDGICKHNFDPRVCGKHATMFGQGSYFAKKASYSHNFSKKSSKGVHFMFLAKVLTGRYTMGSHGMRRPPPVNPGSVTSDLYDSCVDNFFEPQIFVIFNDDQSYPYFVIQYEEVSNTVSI
pEC50: −log10 of the molar value.
measured.property: pEC50

Consider the following illustrative entries.
COc1cnc(-c2cc3ccn(C[C@H](F)C[C@H](C)Oc4cn[nH]c(=O)c4C(F)(F)F)c(=O)c3c(F)c2F)nc1 | 9.43
C[C@@H](C[C@@H](F)Cn1ccc2cc(-c3ncc(C(C)(F)F)cn3)c(F)c(F)c2c1=O)Oc1cn[nH]c(=O)c1C(F)(F)F | 9.18
C[C@@H](C[C@@H](F)Cn1ccc2cc(-c3ncc(Cl)cn3)c(F)c(F)c2c1=O)Oc1cn[nH]c(=O)c1C(F)(F)F | 9.21
C[C@@H](C[C@@H](F)Cn1ccc2cc(-c3ncc(C(F)F)cn3)c(F)c(F)c2c1=O)Oc1cn[nH]c(=O)c1C(F)(F)F | 9.34

a: C[C@@H](C[C@H](F)Cn1cc(F)c2cc(-c3ncc(C(F)F)c(N)n3)c(F)cc2c1=O)Oc1cn[nH]c(=O)c1C(F)(F)F
b: C[C@@H](C[C@H](F)Cn1ccc2cc(-c3ncc(C(F)F)c(N)n3)c(F)cc2c1=O)Oc1cn[nH]c(=O)c1C(F)(F)F
Pick one, a or b : lowest reported pEC50. Let me know the label of the one you choose. b
(b: 9.10, a: 9.38)
